B1: Hairpin Ribozyme (parent)
chain: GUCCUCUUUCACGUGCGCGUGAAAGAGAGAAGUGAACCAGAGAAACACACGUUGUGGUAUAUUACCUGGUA

Variants of: B1
assay notes: self-cleavage, relative activity (ratio to wild type); higher = more cleavage; co-transcriptional
Entries and their self-cleavage
Output spec: single numeric token, no unit.

Answered examples (10):
C38U C46G	0.123
G1C G42U	0.145
G15U G42A	0.207
G1C A41C	0.411
G17A C37G	0.332
G13C A23G	0.373
C50A	0.283
U8C U33A	0.216
U5A C16U	0.475
A22G U63A	0.22

Form: variant = C6A G34A ; self-cleavage = 0.817
